system: biotinyl-Leu-oxazolone; assay: self-aminoacylation, catalytic enhancement (BLO) (fold over background); higher = more active; k-Seq, kA / k0A0; sequences stand for … in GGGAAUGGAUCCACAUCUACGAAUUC…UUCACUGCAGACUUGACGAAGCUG
Fewer inactive variants are shown than the library holds.
MEASURED_METRIC: self-aminoacylation

Problem: Respond only with self-aminoacylation recorded for AUUCACCGAAGUCAUCGGGUG [Fam2.2 aminoacylation ribozyme variant]
Solution: 23.7

Problem: Respond only with self-aminoacylation recorded for CCACAGUUCAAGCAAUCCGUC [Fam1B.1 aminoacylation ribozyme variant]
Solution: 1.16

Problem: Respond only with self-aminoacylation recorded for AUUCACUUAGGUCAUCUGGUG [Fam2.2 aminoacylation ribozyme variant]
Solution: 3.65

Problem: Respond only with self-aminoacylation recorded for CCACACUUCAAGCGAUCGGAC [Fam1B.1 aminoacylation ribozyme variant]
Solution: 1.26

Problem: Respond only with self-aminoacylation recorded for AUUAGCCUGCUCAUCGAGUGA [Fam2.1 aminoacylation ribozyme variant]
Solution: 2.92

Problem: Respond only with self-aminoacylation recorded for AAGUAUGUUAAUAGUCGCAAG [Fam3.1 aminoacylation ribozyme variant]
Solution: 1.44

Problem: Respond only with self-aminoacylation recorded for AUUACCCUGGUAAUCCAGUGA [Fam2.1 aminoacylation ribozyme variant]
Solution: 8.77

Problem: Respond only with self-aminoacylation recorded for CCACACUUCACGCAAUCGGUU [Fam1B.1 aminoacylation ribozyme variant]
Solution: 1.95

Problem: Respond only with self-aminoacylation recorded for AAGUUUACUAAUAGACGCAAG [Fam3.1 aminoacylation ribozyme variant]
Solution: 0.638
